Every entry's value here was drawn from patent US20210317176A1.

Overview of reported Efficacy (ELK-luciferase assay, relative to wild-type FGF21) across a group of binders:
TGT: beta-klotho
PROTOCOL: cell-based or functional assay
ASSAY_ENDPOINT: Efficacy (ELK-luciferase assay, relative to wild-type FGF21) (%)

binder="FGF21 truncation mutant 1-169 (ligand) HPIPDSSPLLQFGGQVRQRYLYTDDAQQTEAHLEIREDGTVGGAADQSPESLLQLKALKPGVIQILGVKTSRFLCQRPDGALYGSLHFDPEACSFRELLLEDGYNVYQSEAHGLPLHLPGNKSPHRDPAPRGPARFLPLPGLPPAPPEPPGILAPQPPDVGSSDPLSMV" reported_measurement=84.9
binder="FGF21 truncation mutant 8-181 (ligand) PLLQFGGQVRQRYLYTDDAQQTEAHLEIREDGTVGGAADQSPESLLQLKALKPGVIQILGVKTSRFLCQRPDGALYGSLHFDPEACSFRELLLEDGYNVYQSEAHGLPLHLPGNKSPHRDPAPRGPARFLPLPGLPPAPPEPPGILAPQPPDVGSSDPLSMVGPSQGRSPSYAS" reported_measurement=24.9
binder="FGF21 truncation mutant 2-181 (ligand) PIPDSSPLLQFGGQVRQRYLYTDDAQQTEAHLEIREDGTVGGAADQSPESLLQLKALKPGVIQILGVKTSRFLCQRPDGALYGSLHFDPEACSFRELLLEDGYNVYQSEAHGLPLHLPGNKSPHRDPAPRGPARFLPLPGLPPAPPEPPGILAPQPPDVGSSDPLSMVGPSQGRSPSYAS" reported_measurement=112
binder="FGF21 truncation mutant 9-181 (ligand) LLQFGGQVRQRYLYTDDAQQTEAHLEIREDGTVGGAADQSPESLLQLKALKPGVIQILGVKTSRFLCQRPDGALYGSLHFDPEACSFRELLLEDGYNVYQSEAHGLPLHLPGNKSPHRDPAPRGPARFLPLPGLPPAPPEPPGILAPQPPDVGSSDPLSMVGPSQGRSPSYAS" reported_measurement=12.5
binder="FGF21 truncation mutant 4-181 (ligand) PDSSPLLQFGGQVRQRYLYTDDAQQTEAHLEIREDGTVGGAADQSPESLLQLKALKPGVIQILGVKTSRFLCQRPDGALYGSLHFDPEACSFRELLLEDGYNVYQSEAHGLPLHLPGNKSPHRDPAPRGPARFLPLPGLPPAPPEPPGILAPQPPDVGSSDPLSMVGPSQGRSPSYAS" reported_measurement=117
binder="FGF21 truncation mutant 7-181 (ligand) SPLLQFGGQVRQRYLYTDDAQQTEAHLEIREDGTVGGAADQSPESLLQLKALKPGVIQILGVKTSRFLCQRPDGALYGSLHFDPEACSFRELLLEDGYNVYQSEAHGLPLHLPGNKSPHRDPAPRGPARFLPLPGLPPAPPEPPGILAPQPPDVGSSDPLSMVGPSQGRSPSYAS" reported_measurement=74.2
